protocol_details: Clearance in human liver microsomes at 10 uM preincubated for 10 mins followed by NADPH addition and measured up to 60 mins
Assay type: ADME, microsome
measurement_parameters: read-out: CLH
measured_metric: microsomal CLint at 10 µM (µL/min/mg)
Answers are plain numbers, in µL/min/mg.

Solved cases below.
INSERT INTO measurements (compound, measured_metric, value_units, assay_result) VALUES
  ('COc1ccc(COC(=O)[C@@H]2CCC3=Nc4ccccc4CN32)cc1', 'microsomal CLint at 10 µM', 'µL/min/mg', 1180),
  ('O=C(NCCc1ccc(O)cc1)[C@@H]1CCC2=Nc3ccc(Br)cc3CN21', 'microsomal CLint at 10 µM', 'µL/min/mg', 46.3);

[in] Return reported microsomal CLint at 10 µM; argument: C[C@@H]([C@@H](O)c1ccc(O)cc1)N1CCC(Cc2ccccc2)CC1 [(S)-IFENPRODIL]
[out] 109

###

Tested on: SH-SY5Y
protocol_details: Neuroprotective activity against NMDA-induced cell damage in human SH-SY5Y cells assessed as cell viability at 10 uM preincubated for 6 hrs followed by NMDA addition and measured after 30 mins by MTT assay (reference value: 58.7 +/- 2.3%)
Format: functional
measurement_parameters: read-out: Activity
Would you mind telling me the reported viability at 10 µM of each entry?
Give bare numbers, in %.

Solved cases below.
INSERT INTO assay_data (compound_structure_string, experimental_target, assay_result) VALUES
  ('N=C(NCc1ccccc1)[C@@H]1CCC2=Nc3ccccc3CN21', 'SH-SY5Y', 68.8),
  ('O=C(NCCc1ccc(F)cc1)[C@@H]1CCC2=Nc3ccccc3CN21', 'SH-SY5Y', 68.1);

Give one value of viability at 10 µM per listed molecule.
1. O=C(Nc1ccc(O)cc1)[C@@H]1CCC2=Nc3ccccc3CN21
2. N=C(NCc1ccc(O)cc1)[C@@H]1CCC2=Nc3ccccc3CN21
3. O=C(NCCCc1ccccc1)[C@H]1CCC2=Nc3ccccc3CN21
4. O=C(Nc1ccc(O)cc1)[C@@H]1CCC2=Nc3ccc(Br)cc3CN21
5. O=C(NCCc1ccc(O)cc1)[C@H]1CCC2=Nc3ccccc3CN21
6. O=C(NCc1ccccc1)[C@@H]1CCC2=Nc3ccccc3CN21
7. O=C(NCc1ccc(F)cc1)[C@@H]1CCC2=Nc3ccc(Br)cc3CN21
8. O=C(Nc1ccc(O)cc1)[C@H]1CCC2=Nc3ccc(Br)cc3CN21

[out]
[70.1, 70.2, 70.2, 68, 70.5, 70.5, 70.4, 68.3]

[in] Missing value: viability at 10 µM, SH-SY5Y, entry O=C(Nc1ccc(O)cc1)[C@H]1CCC2=Nc3ccccc3CN21 . Fill in?
[out] 69.6

###

System: SH-SY5Y
protocol_details: Neuroprotective activity against NMDA-induced cell damage in human SH-SY5Y cells assessed as cell viability at 1 uM preincubated for 6 hrs followed by NMDA addition and measured after 30 mins by MTT assay (reference value: 58.7 +/- 2.3%)
Format: functional
measurement_parameters: read-out: Activity
measured_metric: viability at 1 µM

Solved cases below.
INSERT INTO assay_data (compound_structure_string, experimental_target, measured_metric, assay_result) VALUES
  ('O=C(NCc1ccc(F)cc1)[C@@H]1CCC2=Nc3ccc(Br)cc3CN21', 'SH-SY5Y', 'viability at 1 µM', '70.4%'),
  ('O=C(Nc1ccccc1)[C@@H]1CCC2=Nc3ccccc3CN21', 'SH-SY5Y', 'viability at 1 µM', '71.4%'),
  ('O=C(NCCCc1ccccc1)[C@H]1CCC2=Nc3ccc(Br)cc3CN21', 'SH-SY5Y', 'viability at 1 µM', '72.1%'),
  ('COc1ccc(CNC(=O)[C@@H]2CCC3=Nc4ccc(Br)cc4CN32)cc1', 'SH-SY5Y', 'viability at 1 µM', '68.8%'),
  ('O=C(NCCc1c[nH]c2ccccc12)[C@@H]1CCC2=Nc3ccccc3CN21', 'SH-SY5Y', 'viability at 1 µM', '72%');

Give one value of viability at 1 µM per listed compound.
1. O=C(NCc1ccccc1)[C@@H]1CCC2=Nc3ccccc3CN21
2. COc1ccc(CNC(=O)[C@@H]2CCC3=Nc4ccccc4CN32)cc1
3. O=C(NCc1ccc(O)cc1)[C@H]1CCC2=Nc3ccccc3CN21

[out]
["71.6%", "71.8%", "68%"]

###

Would you mind telling me the reported viability at 1 µM of each entry?
Tested on: SH-SY5Y
protocol_details: Neuroprotective activity against NMDA-induced cell damage in human SH-SY5Y cells assessed as cell viability at 1 uM preincubated for 6 hrs followed by NMDA addition and measured after 30 mins by MTT assay (reference value: 58.7 +/- 2.3%)
Assay type: functional
measurement_parameters: read-out: Activity
Numbers only, in %.

Solved cases below.
INSERT INTO measurements (compound_structure_string, value_units, assay_result) VALUES
  ('O=C(Nc1ccc(O)cc1)[C@@H]1CCC2=Nc3ccc(Br)cc3CN21', '%', 66.2),
  ('O=C(OCc1ccccc1)[C@@H]1CCC2=Nc3ccccc3CN21', '%', 65.5),
  ('N=C(NCc1ccccc1)[C@@H]1CCC2=Nc3ccccc3CN21', '%', 68.6);

Give one value of viability at 1 µM per listed compound.
1. O=C(Nc1ccc(O)cc1)[C@@H]1CCC2=Nc3ccccc3CN21
2. COc1ccc(CNC(=O)[C@H]2CCC3=Nc4ccccc4CN32)cc1
3. O=C(Nc1ccc(O)cc1)[C@H]1CCC2=Nc3ccccc3CN21
4. O=C(NCCCc1ccccc1)[C@H]1CCC2=Nc3ccccc3CN21
5. O=C(NCCc1ccccc1)[C@@H]1CCC2=Nc3ccccc3CN21
6. O=C(N[C@H](CO)Cc1ccccc1)[C@@H]1CCC2=Nc3ccccc3CN21
7. O=C(NCc1ccc(F)cc1)[C@H]1CCC2=Nc3ccccc3CN21

[out]
68.3
70.7
67.2
71.6
77.6
82.6
74.7

Give one value of viability at 1 µM per listed compound.
1. Cc1ccc(CNC(=O)[C@@H]2CCC3=Nc4ccccc4CN32)cc1
2. O=C(NCCCc1ccccc1)[C@@H]1CCC2=Nc3ccccc3CN21

[out]
1: 73.4; 2: 71.2

Give one value of viability at 1 µM per listed compound.
1. O=C(NCc1ccc(O)cc1)[C@@H]1CCC2=Nc3ccccc3CN21
2. O=C(NCCc1ccc(O)cc1)[C@H]1CCC2=Nc3ccc(Br)cc3CN21
3. N=C(NCc1ccc(O)cc1)[C@@H]1CCC2=Nc3ccccc3CN21
4. O=C(Nc1ccc(O)cc1)[C@H]1CCC2=Nc3ccc(Br)cc3CN21
5. COc1ccc(CNC(=N)[C@@H]2CCC3=Nc4ccccc4CN32)cc1
6. O=C(NCc1ccc(F)cc1)[C@@H]1CCC2=Nc3ccccc3CN21
7. O=C(NCc1ccc(O)cc1)[C@@H]1CCC2=Nc3ccc(Br)cc3CN21

[out]
[72, 74.5, 69.2, 71.3, 65.8, 72.6, 73.5]
